Each entry below carries its recorded MIC.
# Test system: Serratia marcescens
# protocol_description: In vitro antibacterial activity against SG 621 strain of Serratia marcescens
# Type: functional

>  <compound>
COC(=O)Oc1cccc2c(=O)n(-c3cc(C(=O)NC(C(=O)NC4C(=O)N5C4SC(C)(C)C5C(=O)O)c4ccccc4)cc(-n4c(=O)oc5c(OC(=O)OC)cccc5c4=O)c3)c(=O)oc12 (stereo not given)

>  <MIC / µg/mL>
12.5

$$$$
>  <compound>
C[C@@H](O)[C@H]1C(=O)N2C(C(=O)O)=C(S[C@@H]3CN[C@H](C(=O)N(C)C)C3)[C@H](C)[C@H]12

>  <MIC / µg/mL>
0.06

$$$$
>  <compound>
COC(=O)Oc1cccc(C(=O)N(CCCn2c(=O)oc3c(OC(=O)OC)cccc3c2=O)C(C)C(=O)NC(C(=O)NC2C(=O)N3C2SC(C)(C)C3C(=O)O)c2ccccc2)c1OC(=O)OC (stereo not given)

>  <MIC / µg/mL>
0.2

$$$$
>  <compound>
COC(=O)Oc1cc(Cl)c(Cl)c(C(=O)N(C)CCCN(CC(=O)NC(C(=O)NC2C(=O)N3C2SC(C)(C)C3C(=O)O)c2ccccc2)C(=O)c2c(Cl)c(Cl)cc(OC(=O)OC)c2OC(=O)OC)c1OC(=O)OC (stereo not given)

>  <MIC / µg/mL>
0.05

$$$$
>  <compound>
COC(=O)Oc1cccc(C(=O)N(CCCn2c(=O)oc3c(OC(=O)OC)cccc3c2=O)C(C)CCC(=O)NC(C(=O)NC2C(=O)N3C2SC(C)(C)C3C(=O)O)c2ccccc2)c1OC(=O)OC (stereo not given)

>  <MIC / µg/mL>
0.1

$$$$

---

# Tested on: Pseudomonas aeruginosa
# protocol_description: Siderophore activity determined using growth promoting assay in SG137 strain of Pseudomonas aeruginosa under iron limited conditions
# Type: functional
Each entry below carries its recorded Activity.
quantity_kind: Activity

>  <compound>
COC(=O)Oc1cc(Cl)c(Cl)c(C(=O)N(C)CCCN(CC(=O)O)C(=O)c2c(Cl)c(Cl)cc(OC(=O)OC)c2OC(=O)OC)c1OC(=O)OC

>  <value>
30

$$$$
>  <compound>
COC(=O)Oc1cccc(C(=O)N(CCCn2c(=O)oc3c(OC(=O)OC)cccc3c2=O)C(C)C(=O)O)c1OC(=O)OC (configuration not stated)

>  <value>
19

$$$$
>  <compound>
COC(=O)Oc1cccc2c(=O)n(CC(=O)Nc3cc(NC(=O)Cn4c(=O)oc5c(OC(=O)OC)cccc5c4=O)cc(C(=O)O)c3)c(=O)oc12

>  <value>
20

$$$$
>  <compound>
CC(=O)Oc1cccc(C(=O)N(C)CCCN(CC(=O)O)C(=O)c2cccc(OC(C)=O)c2OC(C)=O)c1OC(C)=O

>  <value>
15

$$$$
>  <compound>
COC(=O)Oc1cccc2c(=O)n(-c3cc(C(=O)O)cc(-n4c(=O)oc5c(OC(=O)OC)cccc5c4=O)c3)c(=O)oc12

>  <value>
25

$$$$
>  <compound>
COC(=O)Oc1cc(Br)cc(C(=O)N(C)CCCN(CC(=O)O)C(=O)c2cc(Br)cc(OC(=O)OC)c2OC(=O)OC)c1OC(=O)OC

>  <value>
25

$$$$
>  <compound>
CC(=O)Oc1cccc(C(=O)N(C)CCCN(Cc2ccccc2C(=O)O)C(=O)c2cccc(OC(C)=O)c2OC(C)=O)c1OC(C)=O

>  <value>
19

$$$$
